# statedConditions: Liquid; pulse-heating method

compound	Critical pressure (kPa)
CCCCCCCOC(=O)c1ccccc1C(=O)OCCCCCCC [diheptyl phthalate]	1240
CCCCCCCCOC(=O)c1ccccc1C(=O)OCCCCCCCC [dioctyl 1,2-benzenedicarboxylate]	1080
CCCCC(CC)COC(=O)c1ccccc1C(=O)OCC(CC)CCCC (configuration not stated) [bis(2-ethylhexyl) 1,2-benzenedicarboxylate]	1070
CCCCCCCCCOC(=O)c1ccccc1C(=O)OCCCCCCCCC [dinonyl phthalate]	1020
CCCCCCOC(=O)c1ccccc1C(=O)OCCCCCC [dihexyl phthalate]	1340
CCCCCOC(=O)c1ccccc1C(=O)OCCCCC	1430
COC(=O)c1ccccc1C(=O)OC [dimethyl 1,2-benzenedicarboxylate]	2770
CCCCCCCCCCCOC(=O)c1ccccc1C(=O)OCCCCCCCCCCC [diundecyl phthalate]	890
CCOC(=O)c1ccccc1C(=O)OCC [diethyl phthalate]	2260
CCCCOC(=O)c1ccccc1C(=O)OCCCC [dibutyl phthalate]	1660
CCCOC(=O)c1ccccc1C(=O)OCCC	1900
CCCCCCCCCCOC(=O)c1ccccc1C(=O)OCCCCCCCCCC [didecyl phthalate]	940
